# Ki per entry
Target: CB1 cannabinoid receptor (Rattus norvegicus)
Construct: membranes were prepared from rat forebrain membranes; from tissue; host or cells: rat forebrain
Sequence (P20272 whole entry): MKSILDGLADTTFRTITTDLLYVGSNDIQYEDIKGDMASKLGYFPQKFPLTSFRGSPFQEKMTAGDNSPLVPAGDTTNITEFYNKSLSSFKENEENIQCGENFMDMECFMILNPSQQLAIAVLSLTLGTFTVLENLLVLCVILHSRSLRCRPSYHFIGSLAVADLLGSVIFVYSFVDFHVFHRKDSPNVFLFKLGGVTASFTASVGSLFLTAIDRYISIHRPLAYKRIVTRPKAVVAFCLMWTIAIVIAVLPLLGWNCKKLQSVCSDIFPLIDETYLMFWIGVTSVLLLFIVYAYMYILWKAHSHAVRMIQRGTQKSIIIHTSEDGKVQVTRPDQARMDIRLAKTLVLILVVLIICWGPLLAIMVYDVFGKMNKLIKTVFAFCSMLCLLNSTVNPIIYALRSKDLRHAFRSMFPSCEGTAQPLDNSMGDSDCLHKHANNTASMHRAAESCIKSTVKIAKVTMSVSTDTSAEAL
Experiment: CB1 receptor binding, [3H]CP-55,940 displacement
Details: with PMSF (second value of cell); rat forebrain membranes; read-out: Ki CB1 (nM) (o/w PMSFQ)
Method: Some inventive analogs were tested for CB2 receptor binding affinity and for CB1 receptor affinity (to determine selectivity). […] The lower the Ki value, the higher the binding affinity. […] The treated membranes were subsequently used in the binding assay described below. […] Radioactivity was detected using MicroScint 20 scintillation cocktail added directly to the dried filterplates, and the filterplates were counted using a Packard Instruments Top-Count. […]
Value expressed in nM; do not type the unit.

# return recorded Ki for input N#CCCCCC/C=C\C/C=C\C/C=C\C/C=C\CCCC(=O)NC1CC1 [Compound A19]
0.04

# return recorded Ki for input CCCCCN(C)C/C=C\C/C=C\C/C=C\C/C=C\CCCCNC(=O)c1ccc(O)cc1 [Compound A26]
2150

# return recorded Ki for input COc1cc(CNC(=O)CCC/C=C\C/C=C\C/C=C\C/C=C\CCCCN=[N+]=[N-])ccc1O [Compound A7]
80.5

# return recorded Ki for input COc1cc(CNC(=O)CCC/C=C\C/C=C\C/C=C\C/C=C\CCCCCN=[N+]=[N-])ccc1O [Compound A15]
13.2
